# assay_text: Cytotoxicity against Sprague-Dawley rat Cerebral cortex neuron assessed as LDH activity at 50 uM incubated for 24 hrs by LDH assay (reference value: […])
# Format: tissue-based
result_type: Activity
# do not omit the unit; it follows the number

- molecule: "O=C(CCCC[C@@H]1CCSS1)OC1CCN(Cc2ccccc2)CC1"
  Activity: "0.34 mU/ml"
- molecule: "O=C(O)CCCC[C@@H]1CCSS1"
  Activity: "0.29 mU/ml"

# molecule O=C(CCCCC1CCSS1)OC1CCN(Cc2ccc(F)cc2)CC1 (stereo not drawn) ; its Activity = 0.32 mU/ml

###

# assay_text: Stability of compound in human plasma assessed as half life by HPLC-UV assay
# Type: ADME, cell-free
result_type: log10(half-life) (log10 of the value in h)
Give log10 of half-life, with half-life taken in h.

Example cases with answers are listed next.
- compound: "O=C(CCCCC1CCSS1)OC1CCN(Cc2ccc(F)cc2)CC1 (stereo unspecified)"
  log10(half-life): -0.09
- compound: "COc1ccc(CN2CCN(C(=O)CCCCC3CCSS3)CC2)cc1 (stereo unspecified)"
  log10(half-life): 0.72

Can you give me log10(half-life) for all of these, one by one?
1. COc1ccc(CN2CCC(OC(=O)CCCCC3CCSS3)CC2)cc1 (stereo unspecified)
2. O=C(CCCCC1CCSS1)N1CCN(Cc2ccc(F)cc2)CC1 (stereo unspecified)
3. O=C(CCCCC1CCSS1)OC1CCN(Cc2ccccc2)CC1 (stereo unspecified)
4. O=C(CCCCC1CCSS1)N1CCN(Cc2ccccc2)CC1 (stereo unspecified)

Solution:
1: -0.21; 2: 0.62; 3: -0.37; 4: 0.25
